test system: UACC-257; assay: NCI 60 cell one-dose screening (SRB); assay type: cell-based; settings: Homo sapiens; UACC-257, Melanoma; single dose 10 µM, 48 h; read-out: Percentage of cellular growth inhibition
experimental endpoint: inhibition at 10 µM

>>> readout_value("Cc1csc(Nc2cccc(Nc3nc(C)cs3)c2)n1")
"-21.6%"
>>> readout_value("c1ccc(/N=c2\\scc(-c3ccccc3)n2-c2cccc(-n3c(-c4ccccc4)cs/c3=N\\c3ccccc3)c2)cc1")
"-11.8%"
>>> readout_value("CC(=O)c1sc(Nc2cccc(Nc3nc(C)c(C(C)=O)s3)c2)nc1C")
"11.3%"
>>> readout_value("Clc1ccc(-c2csc(Nc3cccc(Nc4nc(-c5ccc(Cl)cc5)cs4)c3)n2)cc1")
"-20.4%"

----------
tested on: OVCAR-8; test: NCI 60 cell one-dose screening (SRB); format: cell-based; conditions: Homo sapiens; OVCAR-8, Ovarian Cancer; single dose 10 µM, 48 h; read-out: Percentage of cellular growth inhibition
Collected inhibition at 10 µM values appear next to each entry.
experimental endpoint: inhibition at 10 µM (%)

>>> readout_value("Fc1ccc(-c2csc(Nc3cccc(Nc4nc(-c5ccc(F)cc5)cs4)c3)n2)cc1")
32.1
>>> readout_value("c1ccc(/N=c2\\scc(-c3ccccc3)n2-c2cccc(-n3c(-c4ccccc4)cs/c3=N\\c3ccccc3)c2)cc1")
-1.5
>>> readout_value("Cc1nc(Nc2cccc(Nc3nc(C)c(N=Nc4ccccc4)s3)c2)sc1N=Nc1ccccc1")
33.4

----------
tested on: HOP-62; test: NCI 60 cell one-dose screening (SRB); type: cell-based; settings: Homo sapiens; HOP-62, Non-Small Cell Lung Cancer; single dose 10 µM, 48 h; read-out: Percentage of cellular growth inhibition
Collected inhibition at 10 µM values appear next to each entry.
experimental endpoint: inhibition at 10 µM (%)

>>> readout_value("Cc1nc(Nc2cccc(Nc3nc(C)c(N=Nc4ccccc4)s3)c2)sc1N=Nc1ccccc1 [5a]")
9.3
>>> readout_value("Fc1ccc(-c2csc(Nc3cccc(Nc4nc(-c5ccc(F)cc5)cs4)c3)n2)cc1 [6b]")
27.3
>>> readout_value("Cc1csc(Nc2cccc(Nc3nc(C)cs3)c2)n1 [3a]")
3.5
>>> readout_value("Clc1ccc(-c2csc(Nc3cccc(Nc4nc(-c5ccc(Cl)cc5)cs4)c3)n2)cc1 [6c]")
17.7
>>> readout_value("NC(=S)Nc1cccc(NC(N)=S)c1 [compound 2, 1,1′-(1,3-phenylene)bis(thiourea)]")
-19.5
>>> readout_value("c1ccc(-c2csc(Nc3cccc(Nc4nc(-c5ccccc5)cs4)c3)n2)cc1 [6a]")
27
>>> readout_value("Clc1ccc(-c2cs/c(=N\\c3ccccc3)n2-c2cccc(-n3c(-c4ccc(Cl)cc4)cs/c3=N\\c3ccccc3)c2)cc1 [8c]")
-3.3
>>> readout_value("CCOC(=O)c1sc(Nc2cccc(Nc3nc(C)c(C(=O)OCC)s3)c2)nc1C [3c]")
1.2
>>> readout_value("S=C(Nc1ccccc1)Nc1cccc(NC(=S)Nc2ccccc2)c1 [compound 7]")
-18.9

----------
experiment: Calculation of the lethal dose 50 (LD50), fixed-dose approach; settings: male, Swiss albino, mouse, in vivo, ip, mice, single dose
Collected LD50 at 24 h values appear next to each entry.
experimental endpoint: LD50 at 24 h (mg/kg)

>>> readout_value("CC(=O)c1sc(Nc2cccc(Nc3nc(C)c(C(C)=O)s3)c2)nc1C")
14
>>> readout_value("Fc1ccc(-c2cs/c(=N\\c3ccccc3)n2-c2cccc(-n3c(-c4ccc(F)cc4)cs/c3=N\\c3ccccc3)c2)cc1")
10

----------
tested on: M14; test: NCI 60 cell one-dose screening (SRB); assay type: cell-based; conditions: Homo sapiens; M14, Melanoma; single dose 10 µM, 48 h; read-out: Percentage of cellular growth inhibition
experimental endpoint: inhibition at 10 µM (%)

>>> readout_value("S=C(Nc1ccccc1)Nc1cccc(NC(=S)Nc2ccccc2)c1 [compound 7]")
-19.6
>>> readout_value("Fc1ccc(-c2csc(Nc3cccc(Nc4nc(-c5ccc(F)cc5)cs4)c3)n2)cc1 [6b]")
33.2
>>> readout_value("Cc1csc(Nc2cccc(Nc3nc(C)cs3)c2)n1 [3a]")
-7.3
>>> readout_value("CCOC(=O)c1sc(Nc2cccc(Nc3nc(C)c(C(=O)OCC)s3)c2)nc1C [3c]")
14

----------
Collected inhibition at 10 µM values appear next to each entry.
test system: CCRF-CEM; test: NCI 60 cell one-dose screening (SRB); type: cell-based; conditions: Homo sapiens, Leukemia, single dose 10 µM, 48 h, read-out: Percentage of cellular growth inhibition
experimental endpoint: inhibition at 10 µM (%)

>>> readout_value("S=C(Nc1ccccc1)Nc1cccc(NC(=S)Nc2ccccc2)c1 [compound 7]")
56.8
>>> readout_value("CCOC(=O)c1sc(Nc2cccc(Nc3nc(C)c(C(=O)OCC)s3)c2)nc1C [3c]")
11
>>> readout_value("NC(=S)Nc1cccc(NC(N)=S)c1 [compound 2, 1,1′-(1,3-phenylene)bis(thiourea)]")
3.6
>>> readout_value("c1ccc(-c2csc(Nc3cccc(Nc4nc(-c5ccccc5)cs4)c3)n2)cc1 [6a]")
61.4
>>> readout_value("Clc1ccc(-c2csc(Nc3cccc(Nc4nc(-c5ccc(Cl)cc5)cs4)c3)n2)cc1 [6c]")
10.4

----------
system: MALME-3M; experiment: NCI 60 cell one-dose screening (SRB); format: cell-based; details: Homo sapiens, Melanoma, single dose 10 µM, 48 h, read-out: Percentage of cellular growth inhibition
I would appreciate it if you labelled entries Y when inhibition at 10 µM is 10% or higher, otherwise N.

>>> assigned_category("Cc1nc(Nc2cccc(Nc3nc(C)c(N=Nc4ccccc4)s3)c2)sc1N=Nc1ccccc1")
"N"
>>> assigned_category("CC(=O)c1sc(Nc2cccc(Nc3nc(C)c(C(C)=O)s3)c2)nc1C")
"Y"
>>> assigned_category("S=C(Nc1ccccc1)Nc1cccc(NC(=S)Nc2ccccc2)c1")
"Y"
>>> assigned_category("CCOC(=O)c1sc(Nc2cccc(Nc3nc(C)c(C(=O)OCC)s3)c2)nc1C")
"Y"
>>> assigned_category("c1ccc(-c2csc(Nc3cccc(Nc4nc(-c5ccccc5)cs4)c3)n2)cc1")
"Y"
>>> assigned_category("Fc1ccc(-c2csc(Nc3cccc(Nc4nc(-c5ccc(F)cc5)cs4)c3)n2)cc1")
"Y"
>>> assigned_category("Clc1ccc(-c2cs/c(=N\\c3ccccc3)n2-c2cccc(-n3c(-c4ccc(Cl)cc4)cs/c3=N\\c3ccccc3)c2)cc1")
"N"
>>> assigned_category("Clc1ccc(-c2csc(Nc3cccc(Nc4nc(-c5ccc(Cl)cc5)cs4)c3)n2)cc1")
"N"
>>> assigned_category("Fc1ccc(-c2cs/c(=N\\c3ccccc3)n2-c2cccc(-n3c(-c4ccc(F)cc4)cs/c3=N\\c3ccccc3)c2)cc1")
"N"
>>> assigned_category("Cc1csc(Nc2cccc(Nc3nc(C)cs3)c2)n1")
"N"
>>> assigned_category("c1ccc(/N=c2\\scc(-c3ccccc3)n2-c2cccc(-n3c(-c4ccccc4)cs/c3=N\\c3ccccc3)c2)cc1")
"N"
>>> assigned_category("NC(=S)Nc1cccc(NC(N)=S)c1")
"Y"

----------
tested on: COLO 205; assay: NCI 60 cell one-dose screening (SRB); type: cell-based; settings: Homo sapiens; COLO 205, Colon Cancer; single dose 10 µM, 48 h; read-out: Percentage of cellular growth inhibition
Collected inhibition at 10 µM values appear next to each entry.
experimental endpoint: inhibition at 10 µM (%)

>>> readout_value("NC(=S)Nc1cccc(NC(N)=S)c1 [compound 2, 1,1′-(1,3-phenylene)bis(thiourea)]")
-36.7
>>> readout_value("CC(=O)c1sc(Nc2cccc(Nc3nc(C)c(C(C)=O)s3)c2)nc1C [3b]")
22.3
>>> readout_value("Cc1nc(Nc2cccc(Nc3nc(C)c(N=Nc4ccccc4)s3)c2)sc1N=Nc1ccccc1 [5a]")
-4.9
>>> readout_value("c1ccc(-c2csc(Nc3cccc(Nc4nc(-c5ccccc5)cs4)c3)n2)cc1 [6a]")
16.5
>>> readout_value("Fc1ccc(-c2csc(Nc3cccc(Nc4nc(-c5ccc(F)cc5)cs4)c3)n2)cc1 [6b]")
24.3
>>> readout_value("Cc1csc(Nc2cccc(Nc3nc(C)cs3)c2)n1 [3a]")
-3.8
>>> readout_value("c1ccc(/N=c2\\scc(-c3ccccc3)n2-c2cccc(-n3c(-c4ccccc4)cs/c3=N\\c3ccccc3)c2)cc1 [8a]")
-21.3
>>> readout_value("CCOC(=O)c1sc(Nc2cccc(Nc3nc(C)c(C(=O)OCC)s3)c2)nc1C [3c]")
12.8
>>> readout_value("Clc1ccc(-c2csc(Nc3cccc(Nc4nc(-c5ccc(Cl)cc5)cs4)c3)n2)cc1 [6c]")
-7.3
>>> readout_value("Fc1ccc(-c2cs/c(=N\\c3ccccc3)n2-c2cccc(-n3c(-c4ccc(F)cc4)cs/c3=N\\c3ccccc3)c2)cc1 [8b]")
-0.4
>>> readout_value("S=C(Nc1ccccc1)Nc1cccc(NC(=S)Nc2ccccc2)c1 [compound 7]")
-37.6
>>> readout_value("Clc1ccc(-c2cs/c(=N\\c3ccccc3)n2-c2cccc(-n3c(-c4ccc(Cl)cc4)cs/c3=N\\c3ccccc3)c2)cc1 [8c]")
17.2

// data source = paper PMC9897788
